test: chemical genetic growth profiling, strain panel (AID 1159580);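 further: tested at 20 µM; growth read once vehicle control cultures reached saturation at 30 °C; 1 = growth at the plate median or of vehicle wells; lower values mean less growth of the strain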; details: S. cerevisiae deletion strains, growth OD, locus YOR001W, strain rrp6, active compounds read low
About 2,000 (36%) of roughly 5,500 compounds were called active. Another 18% or so got no clear call; they are omitted. The list shows a part of the results.
Quantity measured: normalized growth
Answer field: number only, no words.

Please review the following examples before continuing.
CN(C)C(=O)Oc1cccc([N+](C)(C)C)c1 | 0.989
CC(=O)O[C@H]1CCC2(C)C3=C(CCC2C1(C)C)[C@]1(C)CCC(C(C)CCC=C(C)C)[C@@]1(C)CC3 (some centres not stated) | 0.923
CC(C)CCCC(C)[C@H]1CCC2C3C(=O)C=C4C[C@@H](O)CC[C@]4(C)C3CC[C@@]21C (some centres not stated) | 0.994
O=C(NCO)c1cccnc1 | 0.999
NC(=O)c1cccnc1 | 0.983
C[n+]1ccccc1/C=N/O | 0.992
Nc1ccc(S(=O)(=O)NC(=O)c2ccccc2)cc1 | 0.954
COC(=O)/C(=C1\OC(=O)C(c2ccccc2)=C1O)c1ccccc1 | 0.974

# input Consider the molecule "O=C(O)c1ccc(S(=O)(=O)N(Cl)Cl)cc1" . State its measured normalized growth.
# output 0.944

# input Identify measured normalized growth associated with "Cc1cn[nH]c1"
# output 1.03

# input Return reported normalized growth. Input molecule: CC(C)=CCCC(C)[C@@H]1CC[C@]2(C)C3=C(CC[C@@]12C)C1(C)CC[C@H](O)C(C)(C)C1CC3 (some centres not stated)
# output 1.02

# input Hello, please tell me recorded normalized growth for this one: CC(Cc1cccc(C(F)(F)F)c1)NCCOC(=O)c1ccccc1 (configuration not stated)
# output 0.92

----------
assay: chemical genetic growth profiling, strain panel (AID 1159580);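 further: tested at 20 µM; growth read once vehicle control cultures reached saturation at 30 °C; 1 = growth at the plate median or of vehicle wells; lower values mean less growth of the strain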; settings: S. cerevisiae deletion strains, growth OD, locus YIL066C, strain RNR3, active compounds read low
Hit rate of the full screen: of about 5,500 compounds, about 2,000 (36%) were called active. Another 18% or so got no clear call; they are omitted. Some of the results follow.
// returns F unless normalized growth is strictly below 1, in which case T

Below are worked cases with known answers.
C=C1c2c(Cl)ccc(O)c2C(O)=C2C(=O)[C@]3(O)C(O)=C(C(N)=O)C(=O)[C@@H](N(C)C)[C@@H]3[C@@H](O)[C@H]12 | T
CC(C)=CCCC(C)[C@@H]1CC[C@]2(C)C3=C(CC[C@@]12C)C1(C)CC[C@H](O)C(C)(C)C1CC3 (some centres not stated) | F

Now look at this one.
# input Find out if reported normalized growth for "C=C1c2cccc(O)c2C(O)=C2C(=O)[C@]3(O)C(O)=C(C(N)=O)C(=O)[C@@H](N(C)C)[C@@H]3[C@@H](O)[C@H]12" is less than 1
# output T

----------
As shown below, each of these compounds has a reported normalized growth value.
assay: chemical genetic growth profiling, strain panel (AID 1159580);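 further: tested at 20 µM; growth read once vehicle control cultures reached saturation at 30 °C; 1 = growth at the plate median or of vehicle wells; lower values mean less growth of the strain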; settings: S. cerevisiae deletion strains, growth OD, locus YMR307W, strain GAS1, active compounds read low
Hit rate of the full screen: of about 5,500 compounds, about 2,000 (36%) were called active. Roughly 18% stayed inconclusive and do not appear here. Some of the results follow.
Please state the value as a number alone, without comment.

CCOC(=O)[C@H](CCc1ccccc1)N[C@@H](C)C(=O)N1CCC[C@H]1C(=O)O | 1.02

# input Look up normalized growth of "Cc1cc(=O)oc2cc(O)c(O)cc12" and report it.
# output 1.01

# input Name the recorded normalized growth of the item "CCCCCCc1cc2c(C)cc(=O)oc2cc1O" in your answer.
# output 0.803

# input Report normalized growth for "CCOC(CN(c1ccc(F)cc1)S(=O)(=O)c1ccc(F)cc1F)OCC"
# output 0.731

# input Consider the compound "CC(=O)N[C@@H](Cc1c[nH]c2ccccc12)C(N)=O" and give its recorded normalized growth.
# output 1.08

# input Using known records, supply normalized growth for Nc1ncnc2c1ncn2C1CCCO1 (configuration not stated)
# output 1

# input // fetch normalized growth given entry CC(C)=CC1C(C(=O)O)C1(C)C (configuration not stated)
# output 1.24

# input Tell me normalized growth reported for CC(CCc1ccccc1)NCC(O)c1ccc(O)c(C(N)=O)c1 (configuration not stated)
# output 1.04

# input Tell me its normalized growth given "COc1ccc2cc(CCC(C)=O)ccc2c1" as the entry.
# output 0.917

# input Give the reported value of normalized growth for this record: "CNCCCC12CCC(c3ccccc31)c1ccccc12"
# output 0.979

# input Quick one: give measured normalized growth for "C/C(=C\c1ccc(C(=O)O)cc1)c1ccc2c(c1)C(C)(C)CCC2(C)C"
# output 1.02

# input Please report the measured normalized growth for "CNCCCC1c2ccccc2C=Cc2ccccc21"
# output 1

Recorded values, source PubChem BioAssay AID1159580.
